Tested on: UACC-62 melanoma
Test protocol: NCI-60 one-dose screen, 48 h
Details: 10 µM unless noted
Experimental: Growth inhibition of the UACC-62 human tumor cell line is measured as a screen for anti-cancer activity. Cells are grown in 96 well plates and exposed to the test compound for 48 hours. Compounds are tested at a single concentration, which is 10^-5 M for most compounds. The reported endpoint is percent growth (GI% or GIPRCNT), where numbers from 0 - 100% represent growth inhibition, and numbers from -100% - 0 represent cell death. For example, a value of 40 represents 60% growth inhibition. […]
This is part of a sample that, as a whole, favours compounds with a hit. Of some 83,000 tested, about 20% had one in any assay. Activity calls are given as the source filed them. How the source made its calls: active means growth percent below 10; inactive means the rest.
Labels: label 1 for active, label 0 for inactive

# Molecule, Label class
data = [
    ("COc1ccc(/C=C\\c2cc(OC)c(OC)c(OC)c2)cc1OC(=O)c1cccc(Cn2cc(CCOC(=O)[C@H](N)Cc3cn(C)c4ccccc34)nn2)c1", "label 0"),
    ("CCCc1cc(=O)n2c(C(=O)Nc3cccc(C(=O)OCC)c3)c(C(=O)Nc3ccc(F)cc3)sc2n1", "label 0"),
    ("OCCNc1nccc(N2CCN(c3ccnc4cc(Cl)ccc34)CC2)n1", "label 0"),
    ("C#Cc1cccc(NC(=O)c2ccccc2NC(=O)C=C)c1", "label 0"),
    ("CC(=O)c1cc2c(N)c(C(=O)Nc3cccc4ccccc34)sc2nc1C", "label 0"),
    ("C[n+]1ccccc1/C=C/c1ccc2cccc(O)c2n1", "label 0"),
    ("CNC(=O)c1cc(Oc2ccc(NC(=O)Nc3ccc(Cl)c(SC)c3)c(F)c2)ccn1", "label 0"),
    ("CN1CCN(c2ccc3nc(-c4ccc(OCCCCN5CCN(CCCCN6C(=O)c7cccc8cccc(c78)C6=O)CC5)cc4)[nH]c3c2)CC1", "label 0"),
    ("Cc1nn(-c2ccc(F)cc2)c2ncnc(Nc3ccc(NC(=O)Nc4ccc(Cl)c(C(F)(F)F)c4)cc3)c12", "label 0"),
    ("CCCN1CCN(c2ccc3nc(-c4ccc5nc(-c6ccc(OCC)cc6)[nH]c5c4)[nH]c3c2)CC1", "label 0"),
    ("COc1ccc(C2CC(c3ccc(Cl)cc3)=NN2/C=C2\\SC(=S)N(NC(=O)Cc3ccccc3Nc3c(Cl)cccc3Cl)C2=O)cc1 (stereo unspecified)", "label 0"),
    ("CCCCCCCCCCCCC[N+](C)(C)Cc1ccccc1", "label 1"),
    ("Cn1c(O)c(N=NC(=O)c2cc(-c3ccccc3)on2)c2ccccc21", "label 0"),
    ("O=C(COc1ccc(-c2nc3cc(Cl)c(Cl)cc3[nH]2)cc1)N=Nc1c(O)[nH]c2ccccc12", "label 1"),
    ("CC1=C[C@H]2c3c(c(O)c(O)c4oc5cc(O)ccc5c(=O)c34)[C@H](c3cc(O)c(O)c4oc5cc(O)ccc5c(=O)c34)[C@H]2C(C)(C)C1", "label 1"),
    ("O=C1/C(=C/c2cn(-c3ccccc3)nc2-c2ccccc2)SC(=S)N1CCc1ccccc1", "label 0"),
]
